# EXPERIMENTAL TARGET: Vasopressin V1a receptor (Homo sapiens, UniProt P37288)
# Sequence (P37288 whole entry): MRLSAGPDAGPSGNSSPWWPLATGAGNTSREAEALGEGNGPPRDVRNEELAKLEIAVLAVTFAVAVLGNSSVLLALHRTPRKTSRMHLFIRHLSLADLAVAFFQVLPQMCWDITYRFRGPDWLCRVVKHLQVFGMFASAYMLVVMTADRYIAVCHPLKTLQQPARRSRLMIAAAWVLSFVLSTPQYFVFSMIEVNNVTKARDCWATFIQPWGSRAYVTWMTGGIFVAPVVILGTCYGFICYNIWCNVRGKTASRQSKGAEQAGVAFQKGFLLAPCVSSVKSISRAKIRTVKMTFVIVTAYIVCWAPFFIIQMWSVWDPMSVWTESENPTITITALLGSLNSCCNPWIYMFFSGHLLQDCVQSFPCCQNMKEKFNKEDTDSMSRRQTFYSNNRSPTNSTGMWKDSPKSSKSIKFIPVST
# TEST PROTOCOL: Displacement of [3H]AVP from human V1a receptor expressed in CHO cells
pIC50: −log10 of the molar value.
QUANTITY: pIC50

I = Cc1ccn(-c2ccc(C(=O)N3Cc4cccnc4Nc4ccccc43)c(C(F)(F)F)c2)n1
II = Cc1ccn(-c2ccc(C(=O)N3Cc4cccn4Cc4ccccc43)c(Cl)c2)n1
III = Cn1ccc(-c2ccc(C(=O)N3Cc4cccnc4Nc4ccccc43)c(Cl)c2)n1
Q: Ranking field: pIC50; order: falling. Answer format: the labels, ordered as requested.
A: II, III, I
(II: 6.11, III: 5.75, I: 5.23)
